Reported shrunken log2 fold change values follow for various sequences
test system: Escherichia coli TOP10; experiment: shrunken log2 fold change of peptide-encoding DNA abundance (4.5 h post-induction vs induction); higher = less antimicrobial activity (less host growth inhibition); details: time post-induction: 4.5 h; library: site-saturation at positions 5, 18, 19, 20;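 note: peptides expressed intracellularly from a pBAD plasmid library in pooled LB shake-flask culture, induced with 0.3% L-arabinose, DNA abundance read by NGS, three biological replicates, DESeq2 with apeglm shrinkage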

# example entries with known answers
RRIRVRPPRLPRPRPRPWAVPRP    0.157
RRIRDRPPRLPRPRPRPWPEPRP    -0.0683
RRIRERPPRLPRPRPRPSTFPRP    2.07

Please look at this sequence and report its shrunken log2 fold change: RRIRMRPPRLPRPRPRPYQFPRP
-0.125

For the sequence RRIRKRPPRLPRPRPRPHTYPRP , give its measured shrunken log2 fold change value.
-0.101

# return recorded shrunken log2 fold change for input RRIRCRPPRLPRPRPRPNRKPRP
-0.127

Please look at this sequence and report its shrunken log2 fold change: RRIRNRPPRLPRPRPRPKIPPRP
-0.255
